In this section, each of the compounds is paired with its reported IC50.
System Tested: UniProt P24666
Sequence (P24666 1-158): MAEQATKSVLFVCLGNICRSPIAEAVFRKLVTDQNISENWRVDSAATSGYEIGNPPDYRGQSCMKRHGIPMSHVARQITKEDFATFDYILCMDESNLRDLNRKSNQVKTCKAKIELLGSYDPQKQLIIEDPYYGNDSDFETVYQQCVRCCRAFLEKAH
Readout Type: IC50

compound=O=C(O)c1ccc(-c2cc(NCCCN3CCCCC3)c3cnccc3n2)cc1 readout_type=IC50 experimental_value="≤ 1 µM"
compound=CCCNc1cc(-c2ccc3c(c2)cc(C(=O)NC2CCN(C)CC2)n3C)nc2ccncc12 readout_type=IC50 experimental_value="≤ 1 µM"
compound=CCN(CC)C(=O)c1ccc(-c2cc(NCCCN3CCCCC3)c3ccncc3n2)cc1 readout_type=IC50 experimental_value="≥ 20 µM"
compound=O=C(c1cc2ccc(-c3cc(NCCCN4CCCCC4)c4cnccc4n3)cc2s1)N1CCNCC1 readout_type=IC50 experimental_value="≤ 1 µM"
compound=CN1CCN(CCCNC(=O)c2nc3cc(-c4cc(Nc5ccc(CN6CCCC6)cc5)c5cnccc5n4)ccc3[nH]2)CC1 readout_type=IC50 experimental_value="≥ 20 µM"
compound=CCN1CCN(C(=O)c2cc3ccc(-c4cc(NCCCN5CCCCC5)c5cnccc5n4)cc3s2)CC1 readout_type=IC50 experimental_value="1 to 20 µM"
compound=CCN(CC)C(=O)c1ccc(-c2cc(NCCCN3CCCCC3)c3cccnc3n2)cc1 readout_type=IC50 experimental_value="≥ 20 µM"
compound=O=C(NCCCN1CCCCC1)c1cc2ccc(-c3cc(NCCCN4CCCCC4)c4cnccc4n3)cc2s1 readout_type=IC50 experimental_value="≤ 1 µM"
compound="CC(CCN1CCCCC1)Nc1cc(-c2ccc3c(c2)cc(C(=O)NC2CCN(C)CC2)n3C)nc2ccncc12 (stereo not shown)" readout_type=IC50 experimental_value="1 to 20 µM"
compound=CCN(CC)C(=O)c1nc2cc(-c3cc(NCCCN4CCCCC4)c4cnccc4n3)ccc2[nH]1 readout_type=IC50 experimental_value="1 to 20 µM"
compound=CN1CCC(NC(=O)COCc2ccc(-c3cc(NCCCN4CCCCC4)c4cnccc4n3)cc2)CC1 readout_type=IC50 experimental_value="≤ 1 µM"
compound=CN1CCC(NC(=O)c2ccc(-c3cc(NCCCN4CCCCC4)c4cnccc4n3)cn2)CC1 readout_type=IC50 experimental_value="1 to 20 µM"
compound=O=C(NCCc1ccncc1)c1ccc(-c2cc(NCCCN3CCCCC3)c3cnccc3n2)cc1 readout_type=IC50 experimental_value="≤ 1 µM"
compound="CN1CCCC(CCNC(=O)C#Cc2ccc(-c3cc(NCCCN4CCCCC4)c4cnccc4n3)cc2)CC1 (stereo not shown)" readout_type=IC50 experimental_value="1 to 20 µM"
compound=CCN(CC)C(=O)c1ccc(-c2cc(NCCCN3CCN(S(C)(=O)=O)CC3)c3cnccc3n2)cc1 readout_type=IC50 experimental_value="1 to 20 µM"
compound=CN(C)CCNC(=O)c1ccc(-c2cc(NCCCN3CCCCC3)c3cnccc3n2)cc1 readout_type=IC50 experimental_value="≤ 1 µM"
compound=O=C(O)/C=C/c1ccc(-c2cc(NCCCN3CCCCC3)c3cnccc3n2)s1 readout_type=IC50 experimental_value="1 to 20 µM"
compound=CCN(CC)C(=O)c1cc2ccc(-c3cc(NCCCN4CCCCC4)c4cnccc4n3)cc2s1 readout_type=IC50 experimental_value="≤ 1 µM"
compound=CN1CCC(NC(=O)c2ccc(-c3cc(NC4CCOCC4)c4cnccc4n3)cc2)CC1 readout_type=IC50 experimental_value="≤ 1 µM"
